- ASSAY_DETAILS: Inhibition of recombinant rat FTase using FDP as substrate measured after 1 hr by dansyl-GCVLS dye based fluorescence assay
pIC50: −log10 of the molar value.
Each entry below carries its reported pIC50.

Solved cases (2 shown):
# CHEMICAL_STRUCTURE, pIC50
data = [
    ("CC(C)=CCC/C(C)=C/CCCn1cc(CC(P(=O)(O)O)P(=O)(O)O)nn1", "< 4.00"),
    ("CC(C)=CCC/C(C)=C\\CCCn1cc(CC(P(=O)(O)O)P(=O)(O)O)nn1", "< 4.00"),
]

Q: Item CC(C)=CCCCn1cc(CC(P(=O)(O)O)P(=O)(O)O)nn1 : provide pIC50
Ans: < 4.00

Data provenance: ChEMBL document CHEMBL4011604
